# SYSTEM_UNDER_TEST: human CLK1 (Homo sapiens, UniProt P49759)
# Construct: Recombinant human CLK1 (129-end); GST (N); purchased SignalChem C57-11G; host or cells: Sf9 insect cells
# Sequence (P49759 129-484 limits assumed): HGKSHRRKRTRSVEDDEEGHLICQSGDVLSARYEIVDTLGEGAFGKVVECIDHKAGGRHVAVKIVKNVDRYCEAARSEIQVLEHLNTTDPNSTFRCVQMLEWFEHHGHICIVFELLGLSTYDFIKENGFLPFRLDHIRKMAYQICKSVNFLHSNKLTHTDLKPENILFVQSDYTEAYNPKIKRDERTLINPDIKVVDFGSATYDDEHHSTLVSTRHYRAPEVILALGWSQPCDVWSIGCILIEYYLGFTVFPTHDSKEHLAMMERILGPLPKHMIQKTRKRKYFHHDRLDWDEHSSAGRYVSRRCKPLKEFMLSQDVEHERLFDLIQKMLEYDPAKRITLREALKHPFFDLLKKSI
# PROTOCOL_DESCRIPTION: CLK1 enzyme assay (ADP-Glo)
# Format: biochemical
# TEST_CONTEXT: ADP-Glo, ATP 10 μM; read-out: CLK1 IC50
RECORDED_METRIC: IC50

CN1C(=O)/C(=C/c2ccc3ncsc3c2)N=C1Nc1ccc2ncsc2c1; < 0.1 µM

Given the compound O=C1NC(N(CC2CC2)c2ccccc2)=N/C1=C\c1ccc2c(c1)OCCO2 , write its reported IC50.
> 10 µM

Answer with the recorded IC50 for the compound listed here: CN(CC1CC1)C1=N/C(=C\c2ccc3c(c2)OCO3)C(=O)N1
0.1 to 1 µM

Return the recorded IC50 value; entry: O=C1NC(Nc2ccccc2)=N/C1=C\c1ccc2[nH]cnc2c1
< 0.1 µM

Supply reported IC50 belonging to this compound: O=C1NC(N(Cc2ccccc2)c2ccccc2)=N/C1=C\c1ccc2c(c1)OCO2
1 to 10 µM

Please give the documented IC50 of O=C1NC(Nc2ccccc2)=N/C1=C\c1ccc2nccnc2c1
< 0.1 µM

Return IC50 for the following compound: Cn1ncc2ccc(/C=C3\N=C(Nc4ccccc4)NC3=O)cc21
> 10 µM

Determine its reported IC50: COc1ccc(N(C)C2=N/C(=C\c3ccc4ncsc4c3)C(=O)N2)cc1
0.1 to 1 µM

Please give the documented IC50 of CN(Cc1ccccc1)C1=N/C(=C\c2ccc3c(c2)OCO3)C(=O)N1
0.1 to 1 µM

###

# SYSTEM_UNDER_TEST: human GSK3 beta (Homo sapiens)
# Construct: Recombinant full-length human GSK3 beta (expressed in Sf9 insect cells with an N-terminal His tag); His (N)
# Sequence (P49841 whole entry): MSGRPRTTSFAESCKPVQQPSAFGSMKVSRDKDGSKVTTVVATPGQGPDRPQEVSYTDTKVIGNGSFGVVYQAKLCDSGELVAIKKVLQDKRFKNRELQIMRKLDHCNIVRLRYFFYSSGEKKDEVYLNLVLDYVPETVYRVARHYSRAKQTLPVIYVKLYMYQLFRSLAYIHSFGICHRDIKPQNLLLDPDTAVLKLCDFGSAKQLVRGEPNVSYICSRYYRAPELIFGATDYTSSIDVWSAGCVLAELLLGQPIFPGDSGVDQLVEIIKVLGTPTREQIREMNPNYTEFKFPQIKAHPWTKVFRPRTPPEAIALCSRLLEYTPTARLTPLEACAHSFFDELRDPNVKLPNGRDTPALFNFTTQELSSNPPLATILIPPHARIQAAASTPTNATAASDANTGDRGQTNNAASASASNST
# PROTOCOL_DESCRIPTION: GSK3 beta enzyme assay (ADP-Glo)
# TEST_CONTEXT: ATP 25 μM, read-out: GSK3b IC50
pIC50: −log10 of the molar value.
RECORDED_METRIC: pIC50

O=C1NC(Nc2ccccc2)=N/C1=C\c1ccc2[nH]cnc2c1; 6.00 to 7.00

Please report pIC50 for the following compound: O=C(O)CCN(C1=N/C(=C\c2ccc3c(c2)OCO3)C(=O)N1)c1ccccc1
< 5.00

For the compound CN(C1=N/C(=C\c2ccc3[nH]ccc3c2)C(=O)N1)c1ccc2ncsc2c1 , give its measured pIC50 value.
< 5.00

Using the record for Cn1cnc2ccc(/C=C3\N=C(Nc4ccc5ncsc5c4)NC3=O)cc21 , state its measured pIC50.
6.00 to 7.00

###

# SYSTEM_UNDER_TEST: human HIPK2 (Homo sapiens, UniProt Q9H2X6)
# Construct: Recombinant human HIPK2 (1-640); GST (N); purchased SignalChem H04-11BG; host or cells: Sf9 insect cells
# Sequence (Q9H2X6 1-640): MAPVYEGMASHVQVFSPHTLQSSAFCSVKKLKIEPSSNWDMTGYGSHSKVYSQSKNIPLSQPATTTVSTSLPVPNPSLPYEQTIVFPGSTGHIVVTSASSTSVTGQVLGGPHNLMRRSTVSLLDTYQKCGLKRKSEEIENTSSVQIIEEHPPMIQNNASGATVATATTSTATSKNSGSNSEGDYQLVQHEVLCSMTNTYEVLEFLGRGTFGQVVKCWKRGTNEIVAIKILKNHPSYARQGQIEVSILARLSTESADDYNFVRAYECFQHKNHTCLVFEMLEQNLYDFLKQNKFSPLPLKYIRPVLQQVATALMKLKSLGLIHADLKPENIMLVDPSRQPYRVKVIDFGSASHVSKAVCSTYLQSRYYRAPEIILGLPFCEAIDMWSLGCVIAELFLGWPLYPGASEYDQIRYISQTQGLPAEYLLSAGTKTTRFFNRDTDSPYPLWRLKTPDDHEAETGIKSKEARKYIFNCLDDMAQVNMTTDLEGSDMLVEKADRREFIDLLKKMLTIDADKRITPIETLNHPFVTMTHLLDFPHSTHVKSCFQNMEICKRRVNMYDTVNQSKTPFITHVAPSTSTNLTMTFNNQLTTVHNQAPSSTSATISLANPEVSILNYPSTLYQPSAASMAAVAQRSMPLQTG
# PROTOCOL_DESCRIPTION: HIPK2 enzyme assay (ADP-Glo)
# Format: biochemical
# TEST_CONTEXT: ADP-Glo, ATP 5 μM; read-out: HIPK2 IC50
RECORDED_METRIC: IC50

Reference set, count: 6
O=C1NC(N(CC2CC2)c2ccccc2)=N/C1=C\c1ccc2c(c1)OCO2 [Example 10]; > 10 µM
Cn1ncc2cc(/C=C3\N=C(Nc4ccc5ncsc5c4)NC3=O)ccc21 [Example 78]; > 10 µM
O=C1NC(Nc2ccccc2)=N/C1=C\c1ccc2scnc2c1 [Example 14]; > 10 µM
Cn1ncc2ccc(/C=C3\N=C(Nc4ccccc4)NC3=O)cc21 [Example 79]; > 10 µM
O=C1NC(Nc2ccc3ncsc3c2)=NC1Cc1ccc2ncsc2c1 (stereo not drawn) [Example 102]; 0.1 to 1 µM
O=C1NC(Nc2ccc(Cl)cc2)=N/C1=C\c1ccc2ncsc2c1 [Example 40]; 1 to 10 µM

Fill in IC50 for record CN(C1=N/C(=C\c2ccc3ncsc3c2)C(=O)N1)c1ccc([N+](=O)[O-])cc1 [Example 43]
> 10 µM

Entry O=C1NC(Nc2ccc3ncsc3c2)=N/C1=C\c1ccc2c(c1)OCCO2 [Example 74] needs its IC50 filled in; supply it.
> 10 µM

Give a short answer stating reported IC50 for CN(CCN1CCOCC1)C1=N/C(=C\c2ccc3ncsc3c2)C(=O)N1 [Example 32] .
> 10 µM

Supply recorded IC50 for CN(C1=N/C(=C\c2ccc3c(c2)OCO3)C(=O)N1)c1ccccc1 [Example 1] here.
> 10 µM

Supply recorded IC50 for O=C1NC(Nc2ccc3ncsc3c2)=N/C1=C\c1ccc2ncsc2c1 [Example 48] here.
< 0.1 µM

Give the reported IC50 for this compound. CN(C1=N/C(=C\c2ccc3ncsc3c2)C(=O)N1)c1ccc(N)cc1 [Example 44]
1 to 10 µM

Given CN(C1=N/C(=C\c2ccc3ncccc3c2)C(=O)N1)c1ccc2ncsc2c1 [Example 85] , respond with its IC50.
> 10 µM

Name the recorded IC50 of the item O=C1NC(N(CC2CC2)c2ccc3ncsc3c2)=N/C1=C\c1ccc2ncsc2c1 [Example 105] in your answer.
> 10 µM

Specify IC50 for Cn1ncc2ccc(/C=C3\N=C(Nc4ccc5ncsc5c4)NC3=O)cc21 [Example 80] and stop.
> 10 µM

Quote IC50 reported for CN(C1=N/C(=C\c2ccc3c(c2)OCCO3)C(=O)N1)c1ccccc1 [Example 8] please.
> 10 µM

Give the value of IC50 reported for the following: O=C1NC(NCc2ccccc2)=N/C1=C\c1ccc2ncsc2c1 [Example 31]
0.1 to 1 µM

Quickly give me recorded IC50 for O=C1NC(N(Cc2ccccc2)c2ccccc2)=N/C1=C\c1ccc2[nH]cnc2c1 [Example 35]
> 10 µM

Retrieve IC50 measured for O=C1NC(Nc2ccccc2)=N/C1=C\c1ccc2cc[nH]c2c1 [Example 73] and print it.
> 10 µM

Annotate the compound CN(C1=N/C(=C\c2ccc3[nH]ccc3c2)C(=O)N1)c1ccc2ncsc2c1 [Example 87] with its measured IC50.
> 10 µM
